Hello, the source for this data is paper PMC6691788, in case you need it.

- System: MCF-7
- assay_explanation: In vitro cytotoxic activity, SRB assay
- Assay type: cell-based
- test_context: Homo sapiens, MCF7; MCF-7, 48h
- Experimental: In addition, compounds (12a, 12b, 12c, 16b, 16c and 17b) were evaluated against a third cell line (HepG-2) These first two cell lines were selected based on the sensitivity of the previously NCI-tested derivatives towards them amongst the 60 NCI panel. […] The percentage of cell survival was calculated as follows: […]
pIC50: −log10 of the molar value.
Classify by measured pIC50: Satisfied if it is equal to or exceeds 4, Not satisfied if it is smaller.

Take a look at these entries with their results.
[[record]]
compound = "O=C(Nc1ccc(Cl)cc1)Nc1ccc(Nc2nnc(Cl)c3ccccc23)cc1 [Compound 12b]"
experimental_system = "MCF-7"
discrete_label = "Not satisfied"

[[record]]
compound = "Cc1nnc(Nc2ccc(NC(=O)Nc3ccccc3)cc2)c2ccccc12"
experimental_system = "MCF-7"
discrete_label = "Satisfied"

[[record]]
compound = "Cc1nnc(Oc2ccc(NC(=O)Nc3ccccc3)cc2)c2ccccc12"
experimental_system = "MCF-7"
discrete_label = "Satisfied"


INPUT: Threshold query (pIC50 >= 4) on "Cc1nnc(N2CCN(C(=O)c3ccco3)CC2)c2ccccc12"
OUTPUT: Not satisfied

INPUT: # check: pIC50 of Cc1cccc(OCc2nnc(Nc3ccc(Cl)cc3)c3ccccc23)c1 [Compound 17b] is greater than or equal to 4
OUTPUT: Satisfied

INPUT: In plain terms: is recorded pIC50 at least 4 for "c1ccc(N2CCN(c3nncc4ccccc34)CC2)cc1" ?
OUTPUT: Not satisfied

INPUT: In plain terms: is recorded pIC50 at least 4 for "O=C(c1ccco1)N1CCN(c2nncc3ccccc23)CC1" ?
OUTPUT: Not satisfied

====

- Test system: SF-295
- assay_explanation: NCI 60 cell panel SRB screen
- Format: cell-based
- test_context: Homo sapiens; SF-295, 5 log dose, 48 h; read-out: LC50 (the source's name)
Mark YES for CC50 under 40 µM, NO if at or over.

Past entries and their recorded results:
[[record]]
compound = "O=C(Nc1ccc(Cl)cc1)Nc1ccc(Oc2nncc3ccccc23)cc1"
discrete_label = "YES"

[[record]]
compound = "Cc1nnc(Nc2ccc(NC(=O)Nc3ccc(Cl)cc3)cc2)c2ccccc12"
discrete_label = "YES"

[[record]]
compound = "Clc1ccc(Nc2nnc(COc3ccccc3)c3ccccc23)cc1 [Compound 17a]"
discrete_label = "YES"

[[record]]
compound = "O=C(Nc1ccccc1)Nc1ccc(Oc2nnc(Cl)c3ccccc23)cc1 [Compound 13a]"
discrete_label = "YES"


INPUT: A record lists "O=C(Nc1ccc(Cl)cc1)Nc1ccc(Nc2nncc3ccccc23)cc1" . Is its CC50 below 40 µM?
OUTPUT: NO

====

Catalogue of CC50 values
- System: KM12
- assay_explanation: NCI 60 cell panel SRB screen
- Type: cell-based
- test_context: Homo sapiens; KM12, 5 log dose, 48 h; read-out: LC50 (the source's name)
The response must be a number in µM with no trailing unit.

Guide cases for CC50, answers given:
[[record]]
compound = "COc1cccc(NCc2nnc(Nc3ccc(Cl)cc3)c3ccccc23)c1 [Compound 16d]"
unit_of_measure = "µM"
endpoint_result = 18.6

[[record]]
compound = "O=C(Nc1ccc(Cl)cc1)Nc1ccc(Nc2nncc3ccccc23)cc1"
unit_of_measure = "µM"
endpoint_result = 45


INPUT: For "Cc1nnc(Nc2ccc(NC(=O)Nc3ccc(Cl)cc3)cc2)c2ccccc12" , what is its reported CC50?
OUTPUT: 11.1

INPUT: Item "O=C(Nc1ccc(Cl)cc1)Nc1ccc(Oc2nncc3ccccc23)cc1" has what recorded CC50?
OUTPUT: 7.38

INPUT: Give its CC50 value. Item: Clc1ccc(Nc2nnc(COc3ccccc3)c3ccccc23)cc1 [Compound 17a]
OUTPUT: 22.4
